Measured values drawn from ChEMBL document CHEMBL1154696 for this set.

- Test system: A549
- assay.protocol: Cytotoxicity against human A549 cells after 72 hrs by MTT assay
- Type: functional, cell-based
- experimental.setup: A549, 72 h
Give measured pIC50 for each item. Keep answers brief.
Scale explanation: pIC50 corresponds to minus log10 of a concentration expressed in moles per litre.

Lookup result for COc1ccc(C2CNC3=C2C(=O)c2c4c(cn2S(=O)(=O)c2ccc(C)cc2)CCN=C34)cc1 (configuration not stated) ; measured pIC50: 4.59

Lookup result for COc1ccc(C2CNC3=C2C(=O)c2c(ccn2S(=O)(=O)c2ccc(C)cc2)C3=O)cc1 (configuration not stated) ; measured pIC50: 4.28

Lookup result for `COc1ccc(-c2c[nH]c3c2C(=O)c2c(c(CCN)cn2S(=O)(=O)c2ccc(C)cc2)C3=O)cc1` ; measured pIC50: 4.95

====

- Tested on: A549
- assay.protocol: Cytotoxicity against human A549 cells after 72 hrs by MTT assay
- Assay type: functional, cell-based
- experimental.setup: A549, 72 h
pIC50: −log10 of the molar value.
Give measured pIC50 for each item. Keep answers brief.

Lookup result for O=C1C2=C(N=CC2c2ccc(O)cc2)C(=O)c2[nH]ccc21 (centres undefined) ; measured pIC50: < 4.00

Lookup result for `COc1ccc(-c2c[nH]c3c2C(=O)c2[nH]cc4ccnc-3c24)cc1` ; measured pIC50: < 4.00

Lookup result for `COc1ccc(-c2c[nH]c3c2C(=O)c2[nH]ccc2C3=O)cc1` ; measured pIC50: < 4.00

Lookup result for COc1ccc(C(O)CNC2=CC(=O)c3ccn(S(=O)(=O)c4ccc(C)cc4)c3C2=O)cc1 (centres undefined) ; measured pIC50: < 4.00
